// values below are reported GI50
- System: SF-295
- TEST_NAME: NCI tumour cell line growth inhibition, 48 h
Activity calls are given as the source filed them. Cut-off read from the data, not from the text of the source: active = GI50 up to about 1.1 µM and inactive = higher.

Examples with answers:
MOLECULE	SYSTEM_NAME	GI50
CC(C)OC(=O)c1ccc(CCc2cc(O)c(Br)cc2O)cc1	SF-295	17.3 µM (inactive)
O=C(O)/C(Cc1ccc([N+](=O)[O-])cc1)=N\O	SF-295	> 100 µM (inactive)
COc1c(OC(C)=O)cc2c(OC(C)=O)c1CC(C)CC(OC)C(O)C(C)/C=C(\C)C(OC(N)=O)C(OC)/C=C\C=C(/C)C(=O)N2 (stereo not given)	SF-295	> 100 µM (inactive)
O=C1C(O)=C(CN(CCCl)CCCl)C(=O)c2ccccc21	SF-295	70.3 µM (inactive)
C[C@@H](NC(=O)[C@@H]1C[C@]1(C)COC(=O)c1cc([N+](=O)[O-])cc([N+](=O)[O-])c1)c1cccc2ccccc12	SF-295	93.5 µM (inactive)

*Q* Complete the entry with GI50 for O=C(CSc1nnc(SCC(=O)NN=C2CCCCC2)s1)NN=C1CCCCC1
*A* > 100 µM (inactive)

*Q* Complete the entry with GI50 for Cn1c2ccccc2c2c3c(=O)[nH][nH]c(=O)c3c3c4ccccc4n(C)c3c21
*A* > 100 µM (inactive)

*Q* Complete the entry with GI50 for Cc1[nH]c(-c2ccccc2)c(O)c1C(=O)OC1CC(C)CCC1C(C)C (stereo not given)
*A* 12.4 µM (inactive)

*Q* Complete the entry with GI50 for CC(C)=CC(C(O)c1ccccc1)S(=O)(=O)c1nccn1C (stereo not given)
*A* > 100 µM (inactive)

*Q* Complete the entry with GI50 for C=C(C)C1(Sc2ccc(OC)cc2)CC1
*A* 26.9 µM (inactive)

Cited source for all entries: ChEMBL document CHEMBL1201862
